biological target: GlcNAc(b1-2)Man(a1-3)[GlcNAc(b1-2)Man(a1-6)]Man(b1-4)GlcNAc(b1-4)GlcNAc; assay: glycan array binding signal (z-score within array); higher = stronger binding; settings: glycan notation: IUPAC condensed, linker removed
Only a selection was taken, and the strongest signals are over-represented in it overall.
Entries and their measured glycan array binding signal (z-score) follow.
Field format: numeric only.

Binder: AT1G73650(15) (Arabidopsis thaliana), F4HRY1 (protein) MGTVLDSHFLALTAIVTVIYQFIFFVITALFKFDQVTDFAGSTNFVILAVLTLVLKASWHFRQIVLTLLVVVWGLRLGIFLLMETRILQWGEDRRFDEQRGNIVRLIIFWTLQAVWVWTVSLPLTLVNASDGGGSLKPADVIGWTMETWVFGFLIEAAADQQKLSFKNSPENRGKWCDVGVWKYSRHPNYFGEMETLLWWGIFVAASPVLEGAEYLVIFGPLFLTLLLLFVSGIPLLEASADKKHGNSGAYRSYKKTTSPLILFPRGVYGNLPGWFKTVFLFEFPFYSRNLPQEGRLQNSKEKEVKDD
Measure: glycan array binding signal (z-score)
Observed Measurement: -0.569

Consider LTL (Lotus tetragonolobus), P19664 (protein) VSFNYTEFKDDGSLILQGDAKIWTDGRLAMPTDPLVNNPKTTRSAGRALYATPVPIWDSATGNVASFVTSFNFLFVIRELKYTPTDGLVFFLAPVGTEIPSGSTGGFLGIFDGSNGFNQFVAVEFDSYHNIWDPKSLRSSHVGIDVNSIMSLKAVNWNRVSGSLEKATIIYDSQTNILSVVMTSQNGQITTIYGTIDLKTVLPEKVSVGFSATTGNPEREKHDIYSWSFTSTLKEPEEQA . Its measured glycan array binding signal (z-score) is -0.3

Per the records, this binder ( AAA (Anguilla anguilla), Q7SIC1 (protein) VIPEGYTQENVAVRGKATQSAQLRGEHAANSEASNAIDGNRDSNFYHGSCTHSSGQANPWWRVDLLQVYTITSVTITNRGDCCGERISGAEINIGQHLASNGVNNPECSVIGSMATGETKTFHCPAPMIGRYVVTYLPTSESLHLCEVEVNVDKPAAA ) has glycan array binding signal (z-score) equal to -0.274

Recorded result, Cohesin-marm-DC-ASGPR-CRD (protein) LDITSHHHHHHDDLDAVRIKVDTVNAKPGDTVRIPVRFSGIPSKGIANCDFVYSYDPNVLEIIEIEPGDIIVDPNPDKSFDTAVYPDRKIIVFLFAEDSGTGAYAITKDGVFATIVAKVKEGAPNGLSVIKFVEVGGFANNDLVEQKTQFFDGGVNVGDTTEPATPTTPVTTPTTTDDLDAASCPINWVEHQGSCYWFSRSGKTWPEAERYCQLENTHLVVINSREEQNFVQAHLGSAYTWMGLSDPEGVWKWVDGTDYSSGFQNWKPGQPDDWQGHGLGGGEDCAHFHPDGRWNDDVCQRSYHWVCEAGLTQASQDSH , glycan array binding signal (z-score): -0.449

Noted for LSL-150 (Laetiporus sulphureus), Q7Z8V1 (protein) MTDIYIPPEGLYFRLLGFASRQVIFARNSPSPDVGLSPVNDQATDQYFSLIYGTGEHAGLYAIKSKATGKVLFSRRPAEPYVGQIDGDGRYPDNWFKIEPGKTYLSKYFRLVQPSTGTALVSRTHLQPYFWNHPQTEVFDDQYFTFLFEDHHHHHH : its glycan array binding signal (z-score) reads -0.205

From: the supplement of paper PMC8728848
